molecular target: Human rt-PA (Activase) (Homo sapiens); construct: purchased Genentech Inc; test: biochemical; conditions: 30 minute incubation; 1.0 nM enzyme; read-out: IC50 rt-PA (Table 2)
Sequence (P00750 36-562): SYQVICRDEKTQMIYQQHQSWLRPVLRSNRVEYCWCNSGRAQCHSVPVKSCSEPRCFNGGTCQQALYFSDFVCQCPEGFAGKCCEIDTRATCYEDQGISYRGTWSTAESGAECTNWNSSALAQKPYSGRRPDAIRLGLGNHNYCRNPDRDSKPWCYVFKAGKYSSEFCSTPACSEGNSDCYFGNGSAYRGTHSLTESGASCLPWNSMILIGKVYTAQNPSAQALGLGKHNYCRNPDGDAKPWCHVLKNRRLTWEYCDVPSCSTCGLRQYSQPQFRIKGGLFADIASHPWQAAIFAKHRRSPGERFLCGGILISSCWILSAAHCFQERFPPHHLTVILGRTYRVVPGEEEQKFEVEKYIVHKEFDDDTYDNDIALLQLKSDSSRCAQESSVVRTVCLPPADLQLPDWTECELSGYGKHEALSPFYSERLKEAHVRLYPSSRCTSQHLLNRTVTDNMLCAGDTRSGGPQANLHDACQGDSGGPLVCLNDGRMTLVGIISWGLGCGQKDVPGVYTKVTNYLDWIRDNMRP
pIC50: −log10 of the molar value. Where a name gives a salt, the structure may show the parent alone.
readout: pIC50

- N=C(N)NCCC[C@@H](C=O)NC(=O)Cn1cccc(NS(=O)(=O)c2ccccc2)c1=O: < 5.60
- N=C(N)NCCC[C@@H](C=O)NC(=O)Cn1cccc(NS(=O)(=O)Cc2ccccc2)c1=O [Example 10, trifluoroacetate salt]: < 5.60
- Cc1ncc(NS(=O)(=O)Cc2ccccc2)c(=O)n1CC(=O)N[C@H](C=O)CCCNC(=N)N [Compound D, trifluoroacetate salt]: < 5.60
